target: Glutamate NMDA receptor; Grin1/Grin2c (Rattus norvegicus, UniProt P35439+Q00961); experiment: Inhibitory constant against (S)-glutamate and glycine evoked currents mediated by N-methyl-D-aspartate glutamate receptor NR1a/NR2C expressed in Xenopus oocytes
Sequence (Q00961 whole entry, other chains not shown): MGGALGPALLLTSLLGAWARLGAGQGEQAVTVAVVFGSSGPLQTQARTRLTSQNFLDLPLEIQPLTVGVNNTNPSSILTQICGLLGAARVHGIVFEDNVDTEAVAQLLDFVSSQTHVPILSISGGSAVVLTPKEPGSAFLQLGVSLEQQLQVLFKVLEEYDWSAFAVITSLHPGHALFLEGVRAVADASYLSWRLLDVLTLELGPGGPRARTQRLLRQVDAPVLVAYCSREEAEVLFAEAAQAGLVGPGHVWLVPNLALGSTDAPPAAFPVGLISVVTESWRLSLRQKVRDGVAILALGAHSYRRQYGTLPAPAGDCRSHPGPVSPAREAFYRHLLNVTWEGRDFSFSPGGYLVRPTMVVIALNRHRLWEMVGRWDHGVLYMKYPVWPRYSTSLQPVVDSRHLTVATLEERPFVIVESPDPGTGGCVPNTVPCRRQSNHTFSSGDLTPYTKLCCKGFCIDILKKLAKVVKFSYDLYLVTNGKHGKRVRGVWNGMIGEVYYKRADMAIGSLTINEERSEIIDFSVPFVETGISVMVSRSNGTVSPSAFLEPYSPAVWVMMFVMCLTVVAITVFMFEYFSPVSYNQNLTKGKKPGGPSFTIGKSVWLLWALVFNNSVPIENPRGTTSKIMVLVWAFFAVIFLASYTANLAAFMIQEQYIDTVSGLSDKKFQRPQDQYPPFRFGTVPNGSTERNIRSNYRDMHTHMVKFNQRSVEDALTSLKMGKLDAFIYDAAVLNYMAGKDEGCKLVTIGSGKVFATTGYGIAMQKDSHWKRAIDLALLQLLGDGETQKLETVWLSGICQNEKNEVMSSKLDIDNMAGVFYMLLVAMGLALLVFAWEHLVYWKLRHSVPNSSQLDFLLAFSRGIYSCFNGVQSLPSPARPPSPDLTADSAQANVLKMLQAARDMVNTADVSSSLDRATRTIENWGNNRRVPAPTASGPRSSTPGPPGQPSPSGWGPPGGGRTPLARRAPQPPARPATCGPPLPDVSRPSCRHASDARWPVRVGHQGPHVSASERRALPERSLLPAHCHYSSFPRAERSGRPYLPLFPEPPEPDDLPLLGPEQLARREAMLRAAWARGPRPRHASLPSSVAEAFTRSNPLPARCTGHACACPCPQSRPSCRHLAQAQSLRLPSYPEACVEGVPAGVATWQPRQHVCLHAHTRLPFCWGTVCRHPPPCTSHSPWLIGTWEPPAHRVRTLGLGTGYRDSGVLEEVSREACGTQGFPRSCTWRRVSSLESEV
Label key: Satisfied means Ki under 0.8 µM; Not satisfied means Ki of 0.8 µM or more.

Past entries and their recorded results:
QUERY: Is 0.8 µM strictly greater than the compound's reported Ki? compound: "O=C(O)[C@H]1NCCN(Cc2ccc3c(ccc4ccccc43)c2)[C@H]1C(=O)O"
RESULT: Not satisfied

QUERY: Try "O=C(O)[C@H]1NCCN(C(=O)c2ccc3c(c2)CCc2ccccc2-3)[C@H]1C(=O)O" next.
RESULT: Satisfied

QUERY: Try "O=C(O)[C@H]1NCCN(C(=O)c2ccc3c(c2)CCc2cc(Br)ccc2-3)[C@H]1C(=O)O" next.
RESULT: Satisfied

QUERY: Try "O=C(O)[C@H]1NCCN(C(=O)c2ccc(-c3ccccc3)cc2)[C@H]1C(=O)O" next.
RESULT: Not satisfied

QUERY: Try "O=C(O)[C@H]1NCCN(C(=O)/C=C/c2ccccc2)[C@H]1C(=O)O" next.
RESULT: Not satisfied

QUERY: Try "O=C(O)[C@H]1NCCN(C(=O)c2ccc3c(ccc4cc(Br)ccc43)c2)[C@H]1C(=O)O" next.
RESULT: Satisfied

Others:
QUERY: Is 0.8 µM strictly greater than the compound's reported Ki? compound: "O=C(O)[C@H]1CN(CCCP(=O)(O)O)CCN1"
RESULT: Satisfied

* * *

test: Inhibitory constant against (S)-glutamate and glycine evoked currents mediated by N-methyl-D-aspartate glutamate receptor NR1a/NR2D expressed in Xenopus oocytes; assay type: cell-based, Rattus norvegicus; settings: oocyte
Listed here: items and their measured log10 Ki.
Hello, just confirming the data are log10 of Ki with units of µM.

// below: answered compounds
QUERY: # lookup: log10 Ki of "O=C(O)[C@H]1NCCN(C(=O)c2ccc3c(ccc4ccccc43)c2)[C@H]1C(=O)O"
RESULT: -0.90

QUERY: Try "O=C(O)[C@H]1NCCN(S(=O)(=O)c2ccc(-c3ccccc3)cc2)[C@H]1C(=O)O" next.
RESULT: 1.04

QUERY: Try "O=C(O)[C@H]1CN(CCCP(=O)(O)O)CCN1" next.
RESULT: 0.30

Others:
QUERY: # lookup: log10 Ki of "O=C(O)[C@H]1NCCN(C(=O)c2ccc3c(c2)CCc2cc(Br)ccc2-3)[C@H]1C(=O)O"
RESULT: 0.01

QUERY: Try "O=C(O)[C@H]1NCCN(C(=O)c2ccc3c(c2)Cc2ccccc2-3)[C@H]1C(=O)O" next.
RESULT: 0.34

QUERY: Try "O=C(O)[C@H]1NCCN(C(=O)c2ccc3c(c2)CCc2ccccc2-3)[C@H]1C(=O)O" next.
RESULT: -0.24

QUERY: Try "O=C(O)[C@H]1NCCN(C(=O)/C=C/c2ccccc2)[C@H]1C(=O)O" next.
RESULT: 1.78

QUERY: Try "O=C(O)[C@H]1NCCN(C(=O)c2ccc(-c3ccc(F)cc3)cc2)[C@H]1C(=O)O" next.
RESULT: 0.90

QUERY: Try "O=C(O)[C@H]1NCCN(C(=O)c2ccc(-c3ccccc3Br)cc2)[C@H]1C(=O)O" next.
RESULT: 1.11

QUERY: Try C[C@H](NC(c1cccc2nc(O)c(O)nc12)P(=O)(O)O)c1ccc(Br)cc1 (stereo not given in full) next.
RESULT: -1.43

* * *

biological target: Glutamate NMDA receptor; Grin1/Grin2b (Rattus norvegicus, UniProt P35439+Q00960); assay: Inhibitory constant against (S)-glutamate and glycine evoked currents mediated by N-methyl-D-aspartate glutamate receptor NR1a/NR2B expressed in Xenopus oocytes
Sequence (Q00960 whole entry, other chains not shown): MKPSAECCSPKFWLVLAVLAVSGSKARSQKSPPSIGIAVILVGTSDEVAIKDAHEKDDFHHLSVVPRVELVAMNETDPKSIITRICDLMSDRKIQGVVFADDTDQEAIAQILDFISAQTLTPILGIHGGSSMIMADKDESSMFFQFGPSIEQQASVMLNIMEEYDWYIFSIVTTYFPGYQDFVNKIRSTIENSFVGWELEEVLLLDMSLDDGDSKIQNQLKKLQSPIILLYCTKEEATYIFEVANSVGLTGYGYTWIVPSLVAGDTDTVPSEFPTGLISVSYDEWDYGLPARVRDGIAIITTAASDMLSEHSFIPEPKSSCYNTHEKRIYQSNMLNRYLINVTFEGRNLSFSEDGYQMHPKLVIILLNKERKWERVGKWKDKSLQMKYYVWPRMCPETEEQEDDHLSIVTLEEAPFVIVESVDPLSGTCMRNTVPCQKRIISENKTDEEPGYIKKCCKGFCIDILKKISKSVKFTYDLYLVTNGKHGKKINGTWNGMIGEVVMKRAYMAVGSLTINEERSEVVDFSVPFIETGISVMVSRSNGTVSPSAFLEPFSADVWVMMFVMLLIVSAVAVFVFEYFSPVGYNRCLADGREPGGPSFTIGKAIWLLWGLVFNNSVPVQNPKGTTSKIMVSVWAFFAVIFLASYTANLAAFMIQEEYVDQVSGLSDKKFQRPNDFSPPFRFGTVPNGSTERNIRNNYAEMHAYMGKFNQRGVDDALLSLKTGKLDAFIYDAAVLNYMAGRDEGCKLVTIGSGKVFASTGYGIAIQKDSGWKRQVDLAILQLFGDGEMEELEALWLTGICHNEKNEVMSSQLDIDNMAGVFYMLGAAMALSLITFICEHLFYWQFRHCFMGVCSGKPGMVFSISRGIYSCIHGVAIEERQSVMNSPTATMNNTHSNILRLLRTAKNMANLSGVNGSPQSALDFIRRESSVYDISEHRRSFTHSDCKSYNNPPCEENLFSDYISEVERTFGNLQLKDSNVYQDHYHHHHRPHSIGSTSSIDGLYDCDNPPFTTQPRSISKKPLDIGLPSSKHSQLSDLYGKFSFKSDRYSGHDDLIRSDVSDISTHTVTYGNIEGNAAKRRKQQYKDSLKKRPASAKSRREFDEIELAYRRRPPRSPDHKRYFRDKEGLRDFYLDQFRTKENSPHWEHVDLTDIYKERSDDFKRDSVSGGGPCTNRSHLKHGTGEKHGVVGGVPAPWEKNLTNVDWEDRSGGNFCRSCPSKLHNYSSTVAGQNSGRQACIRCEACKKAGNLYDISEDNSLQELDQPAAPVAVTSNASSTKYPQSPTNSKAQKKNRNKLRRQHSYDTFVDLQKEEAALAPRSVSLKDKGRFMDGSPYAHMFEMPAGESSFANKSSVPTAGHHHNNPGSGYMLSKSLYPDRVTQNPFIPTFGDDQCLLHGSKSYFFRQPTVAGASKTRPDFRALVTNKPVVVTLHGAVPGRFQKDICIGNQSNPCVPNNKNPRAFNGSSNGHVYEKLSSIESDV
Label key: Condition met means Ki under 500 nM; Condition not met means Ki of 500 nM or more.

QUERY: Is 500 nM strictly greater than the compound's reported Ki? compound: "O=C(O)[C@H]1NCCN(C(=O)c2ccc(-c3ccc(F)cc3)cc2)[C@H]1C(=O)O"
RESULT: Condition not met

QUERY: Try "O=C(O)[C@H]1NCCN(C(=O)c2ccc3c(c2)CCc2cc(Br)ccc2-3)[C@H]1C(=O)O" next.
RESULT: Condition not met

QUERY: Try "N[C@H](CCCP(=O)(O)O)C(=O)O" next.
RESULT: Condition met

QUERY: Try "O=C(O)[C@H]1NCCN(C(=O)c2ccc3ccccc3c2)[C@H]1C(=O)O" next.
RESULT: Condition not met

Others:
QUERY: Is 500 nM strictly greater than the compound's reported Ki? compound: "O=C(O)[C@H]1NCCN(C(=O)/C=C/c2ccc3ccccc3c2)[C@H]1C(=O)O"
RESULT: Condition met

QUERY: Try "O=C(O)[C@H]1NCCN(C(=O)c2ccc3c(ccc4cc(Br)ccc43)c2)[C@H]1C(=O)O" next.
RESULT: Condition met

* * *

assay: Inhibitory constant against (S)-glutamate and glycine evoked currents mediated by N-methyl-D-aspartate glutamate receptor NR1a/NR2D expressed in Xenopus oocytes; type: cell-based, Rattus norvegicus; settings: oocyte
Listed here: items and their measured log10 of Ki.
Hello, just confirming the data are log10 of Ki with units of µM.

// below: answered molecules
QUERY: # lookup: log10 of Ki of "N[C@H](CCCP(=O)(O)O)C(=O)O"
RESULT: 0.57

QUERY: Try "O=C1c2ccccc2-c2ccc(C(=O)N3CCN[C@H](C(=O)O)[C@@H]3C(=O)O)cc21" next.
RESULT: 0.81

QUERY: Try "O=C(O)[C@@H]1NCCN(C(=O)c2ccc3c(ccc4ccccc43)c2)[C@H]1C(=O)O" next.
RESULT: 0.78

Others:
QUERY: # lookup: log10 of Ki of "O=C(O)[C@H]1NCCN(C(=O)c2ccc3ccc4ccccc4c3c2)[C@H]1C(=O)O"
RESULT: 0.44

QUERY: Try "O=C(O)[C@H]1NCCN(Cc2ccc3c(ccc4ccccc43)c2)[C@H]1C(=O)O" next.
RESULT: 0.50

QUERY: Try "O=C(O)[C@H]1NCCN(C(=O)/C=C/c2ccc3ccccc3c2)[C@H]1C(=O)O" next.
RESULT: 0.29

QUERY: Try "N[C@H](CCCCCP(=O)(O)O)C(=O)O" next.
RESULT: 1.23

QUERY: Try "O=C(O)[C@H]1NCCN(C(=O)c2ccc3c(ccc4cc(Br)ccc43)c2)[C@H]1C(=O)O" next.
RESULT: -0.82

QUERY: Try "O=C(O)[C@H]1NCCN(C(=O)c2ccc(-c3ccccc3)cc2)[C@H]1C(=O)O" next.
RESULT: 0.63

* * *

Listed here: items and their measured Ki.
target: Glutamate NMDA receptor; Grin1/Grin2a (Rattus norvegicus, UniProt P35439+Q00959); assay: Inhibitory constant against (S)-glutamate and glycine evoked currents mediated by N-methyl-D-aspartate glutamate receptor NR1a/NR2A expressed in Xenopus oocytes
Sequence (Q00959 whole entry, other chains not shown): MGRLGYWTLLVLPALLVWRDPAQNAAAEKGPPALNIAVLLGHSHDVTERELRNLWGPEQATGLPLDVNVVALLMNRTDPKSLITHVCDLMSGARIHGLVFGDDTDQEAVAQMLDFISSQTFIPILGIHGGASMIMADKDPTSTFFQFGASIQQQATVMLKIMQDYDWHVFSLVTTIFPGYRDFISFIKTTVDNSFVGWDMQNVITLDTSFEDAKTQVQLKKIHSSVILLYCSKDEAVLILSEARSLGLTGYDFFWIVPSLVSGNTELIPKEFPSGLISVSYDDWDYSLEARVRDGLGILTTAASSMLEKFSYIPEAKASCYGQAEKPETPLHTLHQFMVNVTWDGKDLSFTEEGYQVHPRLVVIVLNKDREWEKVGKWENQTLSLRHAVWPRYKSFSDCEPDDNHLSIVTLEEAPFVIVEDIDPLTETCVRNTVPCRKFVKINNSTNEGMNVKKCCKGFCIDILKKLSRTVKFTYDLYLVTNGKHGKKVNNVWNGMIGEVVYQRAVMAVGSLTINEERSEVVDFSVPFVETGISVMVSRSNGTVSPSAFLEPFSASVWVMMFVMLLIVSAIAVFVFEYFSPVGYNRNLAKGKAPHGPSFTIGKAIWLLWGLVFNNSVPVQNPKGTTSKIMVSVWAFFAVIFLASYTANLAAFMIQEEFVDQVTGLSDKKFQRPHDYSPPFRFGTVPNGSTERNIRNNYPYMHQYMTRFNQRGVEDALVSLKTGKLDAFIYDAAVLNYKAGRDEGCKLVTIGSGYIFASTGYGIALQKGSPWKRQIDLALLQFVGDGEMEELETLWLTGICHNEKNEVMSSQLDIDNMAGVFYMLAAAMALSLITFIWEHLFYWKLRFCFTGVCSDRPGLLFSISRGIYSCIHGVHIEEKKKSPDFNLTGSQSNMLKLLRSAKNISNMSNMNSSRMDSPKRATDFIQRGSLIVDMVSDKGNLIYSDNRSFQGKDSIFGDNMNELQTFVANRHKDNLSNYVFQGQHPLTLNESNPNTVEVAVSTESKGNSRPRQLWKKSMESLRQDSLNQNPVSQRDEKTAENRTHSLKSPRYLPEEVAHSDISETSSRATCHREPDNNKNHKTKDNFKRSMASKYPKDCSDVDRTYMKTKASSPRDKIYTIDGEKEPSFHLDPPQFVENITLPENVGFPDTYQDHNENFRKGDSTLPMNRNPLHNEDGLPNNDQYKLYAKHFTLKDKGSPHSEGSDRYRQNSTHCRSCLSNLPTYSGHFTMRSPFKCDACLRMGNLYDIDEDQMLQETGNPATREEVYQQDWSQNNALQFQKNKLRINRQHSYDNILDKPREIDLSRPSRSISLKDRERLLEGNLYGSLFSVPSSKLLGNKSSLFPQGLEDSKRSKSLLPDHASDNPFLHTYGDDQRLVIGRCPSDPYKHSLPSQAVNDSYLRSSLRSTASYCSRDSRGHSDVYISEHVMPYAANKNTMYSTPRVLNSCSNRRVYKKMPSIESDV

// below: answered molecules
QUERY: # lookup: Ki of "O=C(O)[C@H]1NCCN(C(=O)c2ccc(-c3ccccc3)cc2)[C@H]1C(=O)O"
RESULT: 15.8 µM

QUERY: Try "O=C1c2ccccc2-c2ccc(C(=O)N3CCN[C@H](C(=O)O)[C@@H]3C(=O)O)cc21" next.
RESULT: 7.97 µM

QUERY: Try C[C@H](NC(c1cccc2nc(O)c(O)nc12)P(=O)(O)O)c1ccc(Br)cc1 (some centres undefined) next.
RESULT: 0.0054 µM

QUERY: Try "O=C(O)[C@H]1NCCN(Cc2ccc3c(ccc4ccccc43)c2)[C@H]1C(=O)O" next.
RESULT: 11.2 µM

QUERY: Try "N[C@H](CCCP(=O)(O)O)C(=O)O" next.
RESULT: 0.28 µM

Others:
QUERY: # lookup: Ki of "O=C(O)[C@H]1NCCN(C(=O)c2ccc3c(c2)CCc2ccccc2-3)[C@H]1C(=O)O"
RESULT: 1.54 µM

QUERY: Try "O=C(O)[C@@H]1NCCN(C(=O)c2ccc3c(ccc4ccccc43)c2)[C@H]1C(=O)O" next.
RESULT: 10.5 µM

QUERY: Try "O=C(O)[C@H]1CN(CCCP(=O)(O)O)CCN1" next.
RESULT: 0.041 µM

QUERY: Try "O=C(O)[C@H]1NCCN(C(=O)c2ccc(-c3ccccc3Br)cc2)[C@H]1C(=O)O" next.
RESULT: 42.9 µM

QUERY: Try "O=C(O)[C@H]1NCCN(C(=O)/C=C/c2ccccc2)[C@H]1C(=O)O" next.
RESULT: 13.2 µM

QUERY: Try "O=C(O)[C@H]1NCCN(C(=O)/C=C/c2ccc3ccccc3c2)[C@H]1C(=O)O" next.
RESULT: 0.84 µM

QUERY: Try "O=C(O)[C@H]1NCCN(C(=O)c2ccc3ccc4ccccc4c3c2)[C@H]1C(=O)O" next.
RESULT: 14.2 µM

QUERY: Try "O=C(O)[C@H]1NCCN(C(=O)c2ccc(-c3ccc(F)cc3)cc2)[C@H]1C(=O)O" next.
RESULT: 8.78 µM

QUERY: Try "O=C(O)[C@H]1NCCN(C(=O)c2ccc3c(ccc4cc(Br)ccc43)c2)[C@H]1C(=O)O" next.
RESULT: 0.32 µM

QUERY: Try "O=C(O)[C@H]1NCCN(C(=O)c2ccc3c(c2)CCc2cc(Br)ccc2-3)[C@H]1C(=O)O" next.
RESULT: 3.88 µM

QUERY: Try "N[C@H](CCCCCP(=O)(O)O)C(=O)O" next.
RESULT: 0.49 µM

QUERY: Try "O=C(O)[C@H]1NCCN(C(=O)c2ccccc2)[C@H]1C(=O)O" next.
RESULT: > 100 µM

QUERY: Try "O=C(O)[C@H]1NCCN(C(=O)c2ccc3c(ccc4ccccc43)c2)[C@H]1C(=O)O" next.
RESULT: 0.55 µM

QUERY: Try "O=C(O)[C@H]1NCCN(S(=O)(=O)c2ccc(-c3ccccc3)cc2)[C@H]1C(=O)O" next.
RESULT: 13.6 µM
